I'd appreciate it if you could supply pKd values for the items below.
testedTarget: T1, APBA1_2, Q02410
T1 sequence (Q02410 742-832, limits assumed, looked up): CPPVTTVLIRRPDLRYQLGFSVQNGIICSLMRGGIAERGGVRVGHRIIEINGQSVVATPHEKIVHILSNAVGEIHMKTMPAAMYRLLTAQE
method: holdup assay
Parameters: key: below the threshold = too weak to quantify, mostly under pKd 3.1 to 4
reportedConditions: plain residues with an end cap or a label only (N-terminal biotin on a linker: ado-ado)
Give bare numbers.

Worked examples follow.
binder: QKNKDREYYV [NRXN3, Q9HDB5]
pKd: 3.99

binder: KAEEKPPSKV [SCN4B, Q8IWT1]
pKd: 3.85

binder: YAEKRMLTEV [KCNA6, P17658]
pKd: 3.72

Provide the reported pKd of each entry below, same order.
1. ADEMICITTL [CACNA1D, Q01668]
2. HLSTRQGTCV [ATRNL1, Q5VV63]
3. FLVTEFNVML [DFNB31, Q9P202]

Result:
1. 4.01
2. 4.62
3. 3.84
